meta.source: patent US20250059231A1

Below, each of the molecules is paired with its reported inhibition at 5 µM value.
target: UniProt:P00734; experiment: Selectivity screening, human serine protease thrombin; assay type: biochemical; settings: at 5 μM; read-out: inhibition of human Thrombin
Where a SMILES comes first, the peptide text is derived from it. [ ]: non-standard residue; d: D form. The star is where a group is joined. Palmitoyl = CCCCCCCCCCCCCCCC(=O)*; Phg = N[C@H](C(=O)O)c1ccccc1; Pip = O=C(O)[C@@H]1CCCCN1

{"Molecule": "CCCCCCCCCCCCCCCC(=O)N[C@@H](CCCCN)C(=O)N[C@@H](C)C(=O)N[C@@H](C)C(=O)N[C@@H](Cc1ccccc1)C(N)=O [compound 17] (Palmitoyl-KAAF-NH2)", "Target Of Assay": "UniProt:P00734", "inhibition at 5 µM": "< 5%"}
{"Molecule": "CCCCCCCCCCCCCCCC(=O)N[C@@H](CCCCN)C(=O)N[C@@H](C)C(=O)N[C@@H](Cc1cnc[nH]1)C(N)=O [compound 167] (Palmitoyl-Lys-Ala-His-NH2)", "Target Of Assay": "UniProt:P00734", "inhibition at 5 µM": "< 5%"}
{"Molecule": "CCCCCCCCCCCCCCCC(=O)N[C@@H](CCCCN)C(=O)N1CCCC[C@H]1C(=O)N[C@H](C(=O)N[C@@H](CCCCN)C(N)=O)c1ccccc1 [compound 16] (Palmitoyl-K[Pip][Phg]K-NH2)", "Target Of Assay": "UniProt:P00734", "inhibition at 5 µM": "< 5%"}

====

molecular target: DENV protease (Dengue virus type 2, UniProt P29990); construct: The virus-encoded dengue protease comprises the amino-terminal 180 amino acids of NS3 (NS3pro) of the polyprotein; test: biochemical; settings: at 50 μM; read-out: inhibition of DENV
Sequence (P29990 1398-1437): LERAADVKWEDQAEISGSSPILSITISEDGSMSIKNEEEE
Sequence (P29990 1476-1653): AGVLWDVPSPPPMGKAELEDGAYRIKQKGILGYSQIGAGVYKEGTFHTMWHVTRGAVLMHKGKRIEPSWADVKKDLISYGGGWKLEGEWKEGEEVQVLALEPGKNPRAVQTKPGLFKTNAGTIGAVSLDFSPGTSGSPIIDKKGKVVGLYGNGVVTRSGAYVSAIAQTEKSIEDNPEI
Where a SMILES comes first, the peptide text is derived from it. The star is where a group is joined. Palmitoyl = CCCCCCCCCCCCCCCC(=O)*
Observation Type: inhibition at 50 µM

{"Molecule": "CCCCCCCCCCCCCCCC(=O)N[C@@H](CCCCN)C(=O)N[C@@H](C)C(=O)N[C@@H](Cc1cnc[nH]1)C(N)=O [compound 166] (Palmitoyl-Lys-Ala-His-NH2)", "Assay Result": "≥ 25%"}
{"Molecule": "CCCCCCCCCCCCCCCC(=O)N[C@@H](CCCNC(=N)N)C(=O)N[C@@H](CCC(N)=O)C(=O)N[C@@H](CCCCN)B(O)O", "Assay Result": "≥ 25%"}
{"Molecule": "CCCCCCCCCCCCCCCC(=O)N[C@@H](CCCNC(=N)N)C(=O)N[C@@H](CC(N)=O)C(=O)N[C@@H](Cc1ccccc1)C(N)=O [compound 50] (Palmitoyl-Arg-Asn-Phe-NH2)", "Assay Result": "≥ 25%"}
